# measured_target: MycC (Homo sapiens, UniProt P01106)
# Construct: endogenous in cells; host or cells: L363
# Sequence (P01106 whole entry): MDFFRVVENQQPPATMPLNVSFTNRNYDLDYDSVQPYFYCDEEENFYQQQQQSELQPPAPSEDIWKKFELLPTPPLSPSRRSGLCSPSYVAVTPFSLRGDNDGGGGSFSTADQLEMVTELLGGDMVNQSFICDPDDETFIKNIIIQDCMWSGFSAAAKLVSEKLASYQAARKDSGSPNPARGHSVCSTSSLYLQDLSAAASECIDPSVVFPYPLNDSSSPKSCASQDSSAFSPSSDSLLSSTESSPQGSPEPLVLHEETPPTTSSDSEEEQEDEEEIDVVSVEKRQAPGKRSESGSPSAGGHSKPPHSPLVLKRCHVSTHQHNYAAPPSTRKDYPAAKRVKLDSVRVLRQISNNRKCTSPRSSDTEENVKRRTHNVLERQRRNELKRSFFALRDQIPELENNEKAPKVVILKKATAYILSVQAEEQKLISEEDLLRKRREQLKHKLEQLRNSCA
# assay_method_text: Degradation of MycC protein in L363 cells, JESS/Western blot of lysates
# Format: cell-based
# measurement_parameters: L-363, 24 h, L-363 cells, 24 h, 3 μM; read-out: % Degradation of MycC (L-363) 24 h, 3 μM
assay_endpoint: Dmax at 3 µM

A selection of reference data follows.
Measured Dmax at 3 µM, FC(F)(F)CNCC12CC(C1)N(c1nccc(Nc3cc(C4CCCC4)[nH]n3)n1)C2 : 80 to 100%

Measured Dmax at 3 µM, c1cc(Nc2cc(C3CCCC3)[nH]n2)nc(N2CC3(CCCNC3)C2)n1 : < 20%

Measured Dmax at 3 µM, COC1CN(CC23CC(C2)N(c2nccc(Nc4cc(C5CCCC5)[nH]n4)n2)C3)C1 : 20 to 49%

Next:
Measured Dmax at 3 µM, CN1C[C@H]2CN(c3nccc(Nc4cc(C5CC5)[nH]n4)n3)C[C@H]21 : < 20%

Measured Dmax at 3 µM, NC[C@H]1CCN(c2nccc(Nc3cc(C4CCCC4)[nH]n3)n2)C1 : 80 to 100%

Measured Dmax at 3 µM, CNC[C@H]1CN(c2nccc(Nc3cc(C4CC4)[nH]n3)n2)C[C@H]1F : 50 to 79%

Measured Dmax at 3 µM, NCC12CC(C1)N(c1nccc(Nc3cc(C4CCCC4)[nH]n3)n1)C2 : 80 to 100%

Measured Dmax at 3 µM, c1cc(Nc2cc(C3CC3)[nH]n2)nc(N2CC3(CNC3)C2)n1 : < 20%

###

# measured_target: MycC (Homo sapiens)
# Construct: endogenous in cells; host or cells: L363
# assay_method_text: Degradation of MycC protein in L363 cells, JESS/Western blot of lysates
# Type: cell-based
# measurement_parameters: L-363, 24 h, L-363 cells, 24 h, 6 μM; read-out: % Degradation of MycC (L-363) 24 h, 6 μM
assay_endpoint: Dmax at 6 µM

A selection of reference data follows.
Measured Dmax at 6 µM, CN1CC2(CCCN(c3nccc(Nc4cc(C5CC5)[nH]n4)n3)C2)C1 : < 20%

Measured Dmax at 6 µM, CN1CC(C2CCN(c3nccc(Nc4cc(C5CCCC5)[nH]n4)n3)C2)C1 (stereo not drawn) : 20 to 49%

Measured Dmax at 6 µM, CN1CCCC2(C1)CN(c1nccc(Nc3cc(C4CC4)[nH]n3)n1)C2 : 20 to 49%

Measured Dmax at 6 µM, CN(C)CC12CC(C1)N(c1nccc(Nc3cc(C4CC4)[nH]n3)n1)C2 : 80 to 100%

Measured Dmax at 6 µM, CC(F)(F)CNCC12CC(C1)N(c1nccc(Nc3cc(C4CCCC4)[nH]n3)n1)C2 : 80 to 100%

Measured Dmax at 6 µM, CNC[C@H]1CCN(c2nccc(Nc3cc(C4CCCC4)[nH]n3)n2)C1 : 80 to 100%

Next:
Measured Dmax at 6 µM, CNC1CC2(C1)CN(c1nccc(Nc3cc(C4CC4)[nH]n3)n1)C2 : 20 to 49%

Measured Dmax at 6 µM, CN(C)CCCNc1nccc(Nc2cc(C3CC3)[nH]n2)n1 : < 20%

Measured Dmax at 6 µM, NC[C@H]1CCCN(c2nccc(Nc3cc(C4CC4)[nH]n3)n2)C1 : 80 to 100%

###

# Dmax at 6 µM annotations
# measured_target: MycN (Homo sapiens, UniProt P04198)
# Construct: endogenous in cells; host or cells: SK-N-BE(2)
# Sequence (P04198 whole entry): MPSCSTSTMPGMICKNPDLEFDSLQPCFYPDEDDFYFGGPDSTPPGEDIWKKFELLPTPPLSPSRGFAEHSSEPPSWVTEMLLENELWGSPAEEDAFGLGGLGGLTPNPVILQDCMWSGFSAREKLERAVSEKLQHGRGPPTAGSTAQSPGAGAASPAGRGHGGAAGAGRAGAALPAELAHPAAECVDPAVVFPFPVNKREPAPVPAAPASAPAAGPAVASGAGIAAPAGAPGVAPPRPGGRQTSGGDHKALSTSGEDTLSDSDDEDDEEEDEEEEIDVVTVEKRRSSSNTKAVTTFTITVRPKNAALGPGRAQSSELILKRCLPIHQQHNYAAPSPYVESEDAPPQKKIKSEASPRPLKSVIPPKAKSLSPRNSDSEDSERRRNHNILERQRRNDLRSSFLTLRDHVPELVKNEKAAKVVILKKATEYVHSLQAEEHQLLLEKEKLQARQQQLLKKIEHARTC
# assay_method_text: Degradation of MycN protein in SK-N-BE(2) cells, JESS/Western blot of lysates
# Assay type: cell-based
# measurement_parameters: SKNBE2, 24 h, SKNBE2 cells, 24 h, 6 μM; read-out: % Degradation of MycN (SKNBE2) 24 h, 6 μM

A selection of reference data follows.
Measured Dmax at 6 µM, O=C1c2ccccc2C(=O)N1CC12CC(CN(c3nccc(Nc4cc(C5CC5)[nH]n4)n3)C1)C2 : 80 to 100%

Measured Dmax at 6 µM, CNCC12CCC(C1)N(c1nccc(Nc3cc(C4CCCC4)[nH]n3)n1)C2 (centres unmarked) : 80 to 100%

Measured Dmax at 6 µM, CN(C)C[C@H]1CCN(c2nccc(Nc3cc(C4CC4)[nH]n3)n2)C1 (stereo in doubt) : 50 to 79%

Next:
Measured Dmax at 6 µM, NCC12CCC(C1)N(c1nccc(Nc3cc(C4CC4)[nH]n3)n1)C2 (centres unmarked) : 80 to 100%

Measured Dmax at 6 µM, CN1C[C@@H]2CN(c3nccc(Nc4cc(C5CC5)[nH]n4)n3)C[C@@H]21 : < 20%

Measured Dmax at 6 µM, CN1CC2(CCN(c3nccc(Nc4cc(C5CC5)[nH]n4)n3)CC2)C1 : 80 to 100%

Measured Dmax at 6 µM, NCC12CC(C1)N(c1nccc(Nc3cc(C4CCCC4)[nH]n3)n1)C2 : 80 to 100%

Measured Dmax at 6 µM, CC(F)(F)CNCC12CC(C1)N(c1nccc(Nc3cc(C4CCCC4)[nH]n3)n1)C2 : 80 to 100%

Measured Dmax at 6 µM, CNC[C@H]1CN(c2nccc(Nc3cc(C4CCCC4)[nH]n3)n2)CCO1 : 50 to 79%

Measured Dmax at 6 µM, CNC1CC2(C1)CN(c1nccc(Nc3cc(C4CC4)[nH]n3)n1)C2 : 50 to 79%

Measured Dmax at 6 µM, CN1CCCC2(C1)CN(c1nccc(Nc3cc(C4CC4)[nH]n3)n1)C2 : 20 to 49%

Measured Dmax at 6 µM, CN(C)CC12CC(C1)N(c1nccc(Nc3cc(C4CC4)[nH]n3)n1)C2 : 50 to 79%

###

# Dmax at 1 µM annotations
# measured_target: MycC (Homo sapiens)
# Construct: endogenous in cells; host or cells: L363
# assay_method_text: Degradation of MycC protein in L363 cells, JESS/Western blot of lysates
# Type: cell-based
# measurement_parameters: L-363, 24 h, L-363 cells, 24 h, 1 μM; read-out: % Degradation of MycC (L-363) 24 h, 1 μM

A selection of reference data follows.
Measured Dmax at 1 µM, CNC[C@H]1CCCN(c2nccc(Nc3cc(C4CC4)[nH]n3)n2)C1 [Compound 16] : < 20%

Measured Dmax at 1 µM, CN(C)[C@H]1CCN(c2nccc(Nc3cc(C4CC4)[nH]n3)n2)C1 [Compound 9] : 20 to 49%

Measured Dmax at 1 µM, CN1CCC2(C1)CN(c1nccc(Nc3cc(C4CC4)[nH]n3)n1)C2 [Compound 26] : 20 to 49%

Measured Dmax at 1 µM, CN1CC(C2CN(c3nccc(Nc4cc(C5CCCC5)[nH]n4)n3)C2)C1 [Compound 65] : < 20%

Measured Dmax at 1 µM, NC[C@H]1CN(c2nccc(Nc3cc(C4CCCC4)[nH]n3)n2)CCO1 [Compound 187] : 20 to 49%

Measured Dmax at 1 µM, NC[C@@H]1CN(c2nccc(Nc3cc(C4CC4)[nH]n3)n2)C[C@@H]1F [Compound 122-1] : 50 to 79%

Measured Dmax at 1 µM, NCC1CCN(c2nccc(Nc3cc(C4CC4)[nH]n3)n2)CC1 [Compound 10] : < 20%

Measured Dmax at 1 µM, NC[C@H]1CN(c2nccc(Nc3cc(C4CC4)[nH]n3)n2)C[C@H]1F [Compound 122-2] : 50 to 79%

Measured Dmax at 1 µM, CNC[C@@H]1CCN(c2nccc(Nc3cc(C4CCCC4)[nH]n3)n2)C1 [Compound 36] : 20 to 49%

Measured Dmax at 1 µM, CN(C)CCCN(C)c1nccc(Nc2cc(C3CC3)[nH]n2)n1 [Compound 48] : 20 to 49%

Next:
Measured Dmax at 1 µM, NC[C@@H]1CN(c2nccc(Nc3cc(C4CCCC4)[nH]n3)n2)CCO1 [Compound 116] : < 20%

Measured Dmax at 1 µM, c1cc(Nc2cc(C3CC3)[nH]n2)nc(N2C[C@H]3CNC[C@@H]3C2)n1 (racemic) [Compound 50] : < 20%

Measured Dmax at 1 µM, CN(C)C[C@H]1CCN(c2nccc(Nc3cc(C4CC4)[nH]n3)n2)C1 (stereo in doubt) [Compound 32] : < 20%

Measured Dmax at 1 µM, CNC[C@H]1CN(c2nccc(Nc3cc(C4CC4)[nH]n3)n2)C[C@H]1F [Compound 191] : < 20%

Measured Dmax at 1 µM, CNC[C@H]1CN(c2nccc(Nc3cc(C4CCCC4)[nH]n3)n2)C[C@H]1F [Compound 181] : < 20%

###

# measured_target: MycC (Homo sapiens, UniProt P01106)
# Construct: endogenous in cells; host or cells: L363
# assay_method_text: Degradation of MycC protein in L363 cells, JESS/Western blot of lysates
# Type: cell-based
# measurement_parameters: L-363, 24 h, L-363 cells, 24 h, 3 μM; read-out: % Degradation of MycC (L-363) 24 h, 3 μM
assay_endpoint: Dmax at 3 µM

A selection of reference data follows.
Measured Dmax at 3 µM, CN1CC2(CCCN(c3nccc(Nc4cc(C5CC5)[nH]n4)n3)C2)C1 [Compound 43] : 20 to 49%

Measured Dmax at 3 µM, c1cc(Nc2cc(C3CC3)[nH]n2)nc(N2C[C@H]3CN[C@H]3C2)n1 [Compound 53] : 20 to 49%

Next:
Measured Dmax at 3 µM, CS(=O)(=O)CCNCC12CC(C1)N(c1nccc(Nc3cc(C4CCCC4)[nH]n3)n1)C2 [Compound 68] : 80 to 100%
